Source of measurements: the supplement of paper PMC10981050

Test system: MOLM14
procedure_summary: cell viability relative to vehicle control; higher = less cytotoxic;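 further: after 48 h exposure read by CellTiter-Glo luminescence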
condition: 10 µM; SRSF2 genotype: SRSF2 wt/wt
measured_endpoint: cell viability (%)
Numeric only. Scale: %

Noted cell viability for CC(C)c1cc2c(cc1S(=O)(=O)O)[C@@]1(C)CCC[C@@](C)(C(=O)O)[C@@H]1CC2 [Ecabet sodium] , tested on MOLM14: 99.7

Noted cell viability for COc1ccccc1Oc1c(NS(=O)(=O)c2ccc(C(C)(C)C)cc2)nc(-c2ncccn2)nc1OCCO [Bosentan Hydrate] , tested on MOLM14: 105

Noted cell viability for CC(C)(C#N)c1ccc(N2C(=O)OCc3cnc4ccc(-c5cnc6ccccc6c5)cc4c32)cc1 , tested on MOLM14: 80.2

Noted cell viability for COc1cc(OCc2cccc(-c3ccccc3)c2C)cc(OC)c1CN1CCCC[C@H]1C(=O)O [PD-1/PD-L1 inhibitor 1] , tested on MOLM14: 95.3

----------
Test system: K562
procedure_summary: cell viability relative to vehicle control; higher = less cytotoxic
condition: 10 µM; SRSF2 genotype: SRSF2 P95H/wt
Where a name gives a salt, the structure may show the parent alone.
Consider the following compounds; for each one, report its cell viability.
Numeric only. Scale: %

// sample CN(C)C(=N)NC(=N)N [Metformin hydrochloride (Glucophage)] , its cell viability was 108

// sample CCCC(CCC)C(=O)O[C@H]1C[C@H]2CC[C@@H](C1)[N+]2(C)C [anisotropine methylbromide] , its cell viability was 101

// sample CCCCCCCCc1ccc(CCC(N)(CO)CO)cc1 [Fingolimod (FTY720) HCl] , its cell viability was 0.63

// sample C[C@@H]1CC[C@@]2(OC1)O[C@H]1C[C@H]3[C@@H]4CC=C5C[C@@H](O[C@@H]6O[C@H](CO)[C@@H](O[C@@H]7O[C@@H](CO)[C@H](O)[C@H]7O)[C@H](O)[C@H]6O[C@@H]6O[C@@H](C)[C@H](O)[C@@H](O)[C@H]6O)CC[C@]5(C)[C@H]4CC[C@]3(C)[C@H]1[C@@H]2C [Polyphyllin I] , its cell viability was 0.33

// sample C[C@@H]1CN(c2c(F)c(N)c3c(=O)c(C(=O)O)cn(C4CC4)c3c2F)C[C@H](C)N1 [Sparfloxacin] , its cell viability was 103

// sample COC(=O)c1cc(OC)c2c(c1-c1c(C(=O)OC)cc(OC)c3c1OCO3)OCO2 [Bifendate] , its cell viability was 109

// sample C[C@H](NCc1ccc(OCc2cccc(F)c2)cc1)C(N)=O , its cell viability was 102

----------
System: MOLM14
procedure_summary: cell viability relative to vehicle control; higher = less cytotoxic
condition: 10 µM; SRSF2 genotype: SRSF2 wt/wt
Strictly below 80% in cell viability: T. Otherwise: F.

Q: I wonder whether O=S1(=O)CCN(CN2CCS(=O)(=O)NC2)CN1 has cell viability below 80%. Can you tell?
A: F

Q: I wonder whether CCCCCCCCCCCCCC(=S)NCCCC[C@H](NC(=O)OCc1ccccc1)C(=O)Nc1ccccc1 has cell viability below 80%. Can you tell?
A: F

Q: I wonder whether CO[C@H]1C[C@H](O[C@@H]2/C(C)=C/C[C@@H]3C[C@@H](C[C@]4(CC[C@H](C)[C@@H](C5CCCCC5)O4)O3)OC(=O)[C@@H]3C=C(C)/C(=N/O)[C@H]4OC/C(=C\C=C\[C@@H]2C)[C@]43O)O[C@@H](C)[C@@H]1O has cell viability below 80%. Can you tell?
A: T

Q: I wonder whether COc1cc(CO)cc(OC)c1O [4-Hydroxy-3,5-dimethoxybenzyl alcohol] has cell viability below 80%. Can you tell?
A: F

Q: I wonder whether C[C@H](Cc1cc2c(c(C(N)=O)c1)N(CCCO)CC2)NCCOc1ccccc1OCC(F)(F)F has cell viability below 80%. Can you tell?
A: F

Q: I wonder whether CC(C)c1cc(-c2ccc(F)c3ccccc23)nc(N)n1 has cell viability below 80%. Can you tell?
A: F

Q: I wonder whether CCOC(=O)C1=C(COCCN)NC(C)=C(C(=O)OC)C1c1ccccc1Cl (configuration not stated) [Amlodipine besylate (Norvasc)] has cell viability below 80%. Can you tell?
A: T
